# Tested on: AsPC-1
# assayRemarks: Anti-proliferative 2D CTG assay, AsPC-1
# Type: cell-based
# conditionInfo: Homo sapiens, ASPC1, 96 h, AsPC-1 cells, 4 days incubation, read-out: AsPC-1 cell IC50
// assign criterion met if IC50 falls strictly below 70 nM, else criterion not met (ties count as criterion not met)

[[record]]
compound = "C#Cc1c(F)ccc2cc(O)cc(-c3ncc4c(N5C[C@@H]6CC[C@](COC)(C5)N6)nc(OC[C@@]56CCCN5CC(=C)C6)nc4c3F)c12"
discretelabel = "criterion met"

[[record]]
compound = "[2H]C([2H])([2H])[C@@]12CC[C@@H](CN(c3nc(OC[C@@]45CCCN4C/C(=C\\F)C5)nc4c(F)c(-c5cc(N)cc6ccc(F)c(C#C)c56)ncc34)C1)N2"
discretelabel = "criterion met"

[[record]]
compound = "C#Cc1c(F)ccc2cc(O)cc(-c3ncc4c(N5C[C@@H]6CC[C@](C7CC7)(C5)N6)nc(OCC56CC(=C)CN5CC(=C)C6)nc4c3F)c12"
discretelabel = "criterion not met"

[[record]]
compound = "C#Cc1c(F)ccc2cc(O)cc(-c3ncc4c(N5C[C@@H]6CC[C@](C7CC7)(C5)N6)nc(OC[C@@]56CCCN5C/C(=C\\F)C6)nc4c3F)c12"
discretelabel = "criterion not met"

[[record]]
compound = "C#Cc1c(F)ccc2cc(O)cc(-c3ncc4c(N5C[C@@H]6CC[C@](C7CC7)(C5)N6)nc(OC[C@@]56CCCN5CC(=C)C6)nc4c3F)c12"
discretelabel = "criterion not met"

[[record]]
compound = "C#Cc1c(F)ccc2cc(O)cc(-c3ncc4c(N5C[C@@H]6CC[C@](CC)(C5)N6)nc(OC[C@@]56CCCN5C[C@H](F)C6)nc4c3F)c12 [Positive Compound 2, reference compound]"
discretelabel = "criterion not met"

[[record]]
compound = "C#Cc1c(F)ccc2cc(O)cc(-c3ncc4c(N5C[C@@H]6CC[C@](CC)(C5)N6)nc(OCC56CC(=C)CN5CC(=C)C6)nc4c3F)c12"
discretelabel = "criterion met"

[[record]]
compound = "[2H]C([2H])([2H])C([2H])([2H])[C@@]12CC[C@@H](CN(c3nc(OC[C@@]45CCCN4C/C(=C\\F)C5)nc4c(F)c(-c5cc(N)cc6ccc(F)c(C#C)c56)ncc34)C1)N2"
discretelabel = "criterion met"

